Value source: patent US8192962B2

Test system: Metabolism protein genes
Assay: DNA chip mRNA expression in yeast, metabolism protein genes (Table 7)
Assay type: cell-based, Saccharomyces cerevisiae S288C
Settings: yeast gene YDR277C
PROPERTY LABEL: level of expressed mRNA in the presence/in the absence of chemical substance
No unit in the answer, please; the number alone is enough.

{"COMPOUND": "C=CC=O", "READING": 1.3}
{"COMPOUND": "COc1cc(CNC(=O)CCCCC=CC(C)C)ccc1O [(12), 8-methyl-N-vanillyl-6-nonenamide]", "READING": 0.9}
{"COMPOUND": "[Cl][Cd][Cl]", "READING": 1.2}
{"COMPOUND": "N#Cc1c(Cl)c(Cl)c(Cl)c(C#N)c1Cl", "READING": 0.2}
{"COMPOUND": "[Cl][Pb][Cl]", "READING": 3.0}

Now examine the next entry.
Task: Give level of expressed mRNA in the presence/in the absence of chemical substance for CN(C)C(=S)SSC(=S)N(C)C [(10), Tetramethylthiuram disulfide]
Result: 0.9
